TEST: chemical genetic growth profiling, strain panel (AID 1159580);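 note: tested at 20 µM; growth read once vehicle control cultures reached saturation at 30 °C; 1 = growth at the plate median or of vehicle wells; lower values mean less growth of the strain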
CONDITION SUMMARY: S. cerevisiae deletion strains, growth OD, locus YHR129C, strain ARP1
Screen size: about 5,500 compounds; about 2,000 (36%) were called active. Roughly 18% stayed inconclusive and do not appear here. Cut-off read from the data, not from the text of the source: active = normalized growth mostly below about 0.91 (no sharp cut-off); inconclusive = no clear call, values can overlap the other calls; inactive = mostly above about 0.92. The list shows a part of the results.
Please answer using one outcome listed in Y (active), N (inactive)

Request: Recorded test call requested for CC(=O)O[C@H]1CC[C@]2(C)C3C(=O)[C@@H](OC(C)=O)[C@@]4(C)C(C[C@@H]5O[C@]6(CCC(C)CO6)[C@@H](C)[C@@H]54)C3CC[C@H]2C1 (stereo not given in full)
Response: N

Request: Recorded test call requested for CN(C)CCOC(=O)C(c1ccccc1)C1(O)CCCC1 (stereo not given)
Response: N

Request: Recorded test call requested for NCC(CC(=O)O)c1ccc(Cl)cc1 (stereo not given)
Response: N

Request: Recorded test call requested for COC(=O)CCC(C)[C@H]1CCC2C3C(C[C@H](O)[C@@]21C)[C@@]1(C)CC[C@@H](O)C[C@H]1C[C@H]3O (stereo not given in full)
Response: N

Request: Recorded test call requested for c1ccc2c(c1)CN1CCCC1=N2
Response: N

Request: Recorded test call requested for COc1ccc(C(=O)CC(=O)c2ccc(C(C)(C)C)cc2)cc1
Response: N

Request: Recorded test call requested for CC(=O)Nc1ccccc1
Response: N

Request: Recorded test call requested for COC(=O)CCCOc1ccc(Cl)cc1Cl
Response: N

Request: Recorded test call requested for N#C/C(=C\c1cccc(O)c1)C(=O)O
Response: N

Request: Recorded test call requested for CC(CCC(=O)O)[C@H]1CCC2C3C(C[C@H](O)[C@@]21C)[C@@]1(C)CC[C@@H](O)C[C@H]1C[C@H]3O (stereo not given in full)
Response: N

Request: Recorded test call requested for CCCCCC1C(=O)CCC1CC(=O)OC (stereo not given)
Response: N

Request: Recorded test call requested for C=C[C@H]1CN2CC[C@H]1C[C@@H]2[C@H](O)c1ccnc2ccccc12
Response: N

Request: Recorded test call requested for CCOC(=O)[C@H](CCc1ccccc1)N[C@@H](C)C(=O)N1Cc2ccccc2C[C@H]1C(=O)O
Response: N

Request: Recorded test call requested for CC(C)CCCC(C)C1CCC2C3CC[C@H]4CCCC[C@]4(C)C3CC[C@]12C (stereo not given in full)
Response: N

Request: Recorded test call requested for COC(=O)CCC(=O)O[C@H]1CCC2(C)C(CCC3C2C(=O)[C@@H](O)C2(C)C3CC3OC4(CCC(C)CO4)[C@@H](C)C32)C1 (stereo not given in full)
Response: N

Request: Recorded test call requested for CC[C@H](CCC(C)[C@H]1CCC2C3CCC4C[C@@H](O)CC[C@]4(C)C3CC[C@@]21C)C(C)C (stereo not given in full)
Response: N

Request: Recorded test call requested for COc1cc([C@H]2Oc3cc([C@H]4Oc5cc(O)cc(O)c5C(=O)[C@@H]4O)ccc3O[C@@H]2CO)ccc1O
Response: N

Request: Recorded test call requested for COC(=O)CCC(C)C1CCC2C3CC[C@@H]4C[C@H](O)CC[C@]4(C)C3C[C@H](O)[C@]12C (stereo not given in full)
Response: N

Request: Recorded test call requested for CC(CCC(=O)O)[C@H]1CCC2C3CC[C@@H]4C[C@H](O)CC[C@]4(C)C3CC[C@@]21C (stereo not given in full)
Response: Y

Request: Recorded test call requested for O=C(O)CCCOc1ccc(Cl)cc1Cl
Response: N

---

TEST: chemical genetic growth profiling, strain panel (AID 1159580);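 note: tested at 20 µM; growth read once vehicle control cultures reached saturation at 30 °C; 1 = growth at the plate median or of vehicle wells; lower values mean less growth of the strain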
CONDITION SUMMARY: S. cerevisiae deletion strains, growth OD, locus YOR106W, strain vam3, active compounds read low
Among all 5,500 compounds or so, about 2,000 (36%) were called active. About 18% were inconclusive and are not listed. This is one part of the list.
ENDPOINT LABEL: normalized growth
I only need the number, thanks.

Form: compound = Cc1cc(C)cc(OCC2CNC(=O)O2)c1 (stereo not drawn) ; normalized growth = 0.978

Form: compound = C=C1C2CC[C@@]3(C)[C@H](c4ccoc4)OC(=O)C[C@]13O[C@H]1CC(O)C(C)(C)C(CC(=O)OC)[C@@]21C (stereo partly drawn) ; normalized growth = 0.955

Form: compound = CN(C)CCOC(=O)COc1ccc(Cl)cc1 ; normalized growth = 1

Form: compound = C=C1C2CCC3(C)C(c4ccoc4)OC(=O)CC13OC1CC(OC(C)=O)C(C)(C)C(CC(=O)OC)C12C (stereo not drawn) ; normalized growth = 0.999

Form: compound = NCC(CC(=O)O)c1ccc(Cl)cc1 (stereo not drawn) ; normalized growth = 1.02

Form: compound = C=C1C(C2(C)C=CC(=O)C(C)(C)C2CC(=O)OC)CC[C@@]2(C)[C@H](c3ccoc3)OC(=O)C3OC132 (stereo partly drawn) ; normalized growth = 1.06

Form: compound = C[C@@H]1O[C@@H](O[C@H]2C[C@@H](O)[C@]3(CO)C4C(CC[C@]3(O)C2)[C@@]2(O)CC[C@H](C3=CC(=O)OC3)[C@@]2(C)C[C@H]4O)[C@H](O)[C@H](O)[C@H]1O (stereo partly drawn) ; normalized growth = 1.01

Form: compound = O=c1cc(-c2ccccc2)oc2cccc(O)c12 ; normalized growth = 0.923

Form: compound = C[C@@H]1CC2C3CCC4=CC(=O)C=C[C@]4(C)[C@@]3(F)[C@@H](O)C[C@]2(C)[C@H]1C(=O)CO (stereo partly drawn) ; normalized growth = 1.02

Form: compound = CN(C)CCC(c1ccc(Br)cc1)c1ccccn1 (stereo not drawn) ; normalized growth = 0.966

Form: compound = C[C@@H](N)[C@@H](O)c1ccccc1 ; normalized growth = 1

Form: compound = O=C(O)CCCOc1ccc(Cl)cc1Cl ; normalized growth = 0.942

Form: compound = C[C@@H]1CC2C3C[C@H](F)C4=CC(=O)C=C[C@]4(C)[C@@]3(F)[C@@H](O)C[C@]2(C)[C@@]1(O)C(=O)COC(=O)C(C)(C)C (stereo partly drawn) ; normalized growth = 0.987

---

I'd appreciate it if you could supply normalized growth values for the items below.
TEST: chemical genetic growth profiling, strain panel (AID 1159580);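 note: tested at 20 µM; growth read once vehicle control cultures reached saturation at 30 °C; 1 = growth at the plate median or of vehicle wells; lower values mean less growth of the strain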
CONDITION SUMMARY: S. cerevisiae deletion strains, growth OD, locus YJL092W, strain hpr5, active compounds read low
Out of some 5,500 compounds screened, about 2,000 (36%) were called active. Not shown: some 18% with an inconclusive outcome. This is one part of the list.
I only need the number, thanks.

Form: compound = O=c1cc(-c2ccc(O)cc2)oc2cc(O)cc(O)c12 ; normalized growth = 0.988

Form: compound = O=[N+]([O-])c1cccc2cn[nH]c12 ; normalized growth = 0.989

Form: compound = CCN(CCCc1ccccc1)CCCc1ccccc1 ; normalized growth = 0.976

Form: compound = Clc1ccc2c(c1)C(N1CCNCC1)=Nc1ccccc1O2 ; normalized growth = 0.987

Form: compound = c1ccc2c(c1)CN1CCCC1=N2 ; normalized growth = 0.995

Form: compound = c1ccc2nc(N3CCNCC3)ccc2c1 ; normalized growth = 0.978

Form: compound = NNCCc1ccccc1 ; normalized growth = 1

---

TEST: chemical genetic growth profiling, strain panel (AID 1159580);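 note: tested at 20 µM; growth read once vehicle control cultures reached saturation at 30 °C; 1 = growth at the plate median or of vehicle wells; lower values mean less growth of the strain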
CONDITION SUMMARY: S. cerevisiae deletion strains, growth OD, locus YER110C, active compounds read low
The whole screen tested about 5,500 compounds, of which about 2,000 (36%) were called active. About 18% were inconclusive and are not listed. The list shows a part of the results.
ENDPOINT LABEL: normalized growth
I only need the number, thanks.

Form: molecule = CC(CN(C)C)CN1c2ccccc2CCc2ccccc21 (stereo not drawn) ; normalized growth = 1.02

Form: molecule = C=C1C2=CC(=O)O[C@@H](c3ccoc3)[C@]2(C)CCC1[C@@]1(C)C=CC(=O)C(C)(C)[C@@H]1CC(=O)OC (stereo partly drawn) ; normalized growth = 0.997

Form: molecule = CN(C)CCOC(=O)C(c1ccccc1)C1(O)CCCC1 (stereo not drawn) ; normalized growth = 1.02

Form: molecule = CC1(C)C(O)CC(O)C2(C)C1CC(O)C1(C)C2CCC2(C)C(c3ccoc3)OC(=O)C3OC321 (stereo not drawn) ; normalized growth = 1.04

Form: molecule = O=c1cc(-c2ccccc2)oc2cc(O)c(O)c(O)c12 ; normalized growth = 0.851

Form: molecule = CCCCSP(=O)(SCCCC)SCCCC ; normalized growth = 1.01

Form: molecule = C=C1C2CCC3(C)C(c4ccoc4)OC(=O)CC13OC1CC(OC(C)=O)C(C)(C)C(CC(=O)OC)C12C (stereo not drawn) ; normalized growth = 0.99

Form: molecule = CCC(=O)Nc1ccc(Cl)c(Cl)c1 ; normalized growth = 0.996

Form: molecule = COc1cc([C@@H]2c3cc4c(cc3[C@H](OC(C)=O)[C@H]3COC(=O)[C@@H]23)OCO4)cc(OC)c1OC ; normalized growth = 1.02

Form: molecule = C=C1C2CC[C@@]3(C)[C@H](c4ccoc4)OC(=O)C[C@]13O[C@H]1CC(O)C(C)(C)C(CC(=O)OC)[C@@]21C (stereo partly drawn) ; normalized growth = 1.02

Form: molecule = C=C1[C@H]2CC[C@@]3(C)[C@H](c4ccoc4)OC(=O)C[C@]13O[C@H]1C[C@H](O)C(C)(C)[C@H](CC(=O)OC)[C@]12C ; normalized growth = 1.02

Form: molecule = CCC(=O)c1ccc2c(c1)N(CC(C)N(C)C)c1ccccc1S2 (stereo not drawn) ; normalized growth = 1.02

Form: molecule = COc1c(Cl)ccc(Cl)c1C(=O)O ; normalized growth = 1.02

Form: molecule = CCN(CC)C(C)CN1c2ccccc2Sc2ccccc21 (stereo not drawn) ; normalized growth = 0.956

Form: molecule = CCCC(CCC)C(=O)O ; normalized growth = 0.985

Form: molecule = Nc1cc(-c2ccncc2)c[nH]c1=O ; normalized growth = 0.983

Form: molecule = CNCCCN1c2ccccc2CCc2ccccc21 ; normalized growth = 0.999

Form: molecule = COc1ccc(C(=O)N2CCCC2=O)cc1 ; normalized growth = 0.985

Form: molecule = NCC(CC(=O)O)c1ccc(Cl)cc1 (stereo not drawn) ; normalized growth = 0.978

Form: molecule = COC(=O)CCCOc1ccc(Cl)cc1Cl ; normalized growth = 0.995

Form: molecule = COc1cc2c(cc1/C=C/C(=O)c1cc(OC)c(OC)cc1OC)OCO2 ; normalized growth = 1.02

Form: molecule = CCN(CC)CCOC(=O)C(c1ccccc1)c1ccccc1 ; normalized growth = 0.968

Form: molecule = CC(=O)N=c1sc(S(N)(=O)=O)nn1C ; normalized growth = 1.02
